# system under test: acetylcholine receptor
# experiment description: SPR, AchR immobilised on CM5 chip, peptide 10 uM
Classification scheme (Binding affinity (RU)): low = under 20 RU, medium = from 20 RU up to 30 RU, high = 30 RU and over

binder | class label
KRHDKK [6mer-1-952] | medium
KIPVKK [6mer-2-760] | low
KYAVKR [6mer-2-633] | low
RIKVRK [6mer-2-746] | medium
KCWWRR [6mer-2-695] | medium
KHTMKR [6mer-2-743] | low
RYTMKK [6mer-2-684] | low
RRCMMK [6mer-1-1048] | high
RNAVKK [6mer-2-764] | high
RENFKK [6mer-2-705] | low
RKDPHR [6mer-1-1046] | high
KAAHRR [6mer-2-779] | low
RMKWRK [6mer-2-675] | low
RIWPKR [6mer-2-709] | high
KKDKIK [6mer-1-1006] | medium
KKEHDK [6mer-1-943] | high
KRADIK [6mer-1-1039] | high
